meta.source: ChEMBL document CHEMBL3988442

# study.target: Ubiquitin-activating enzyme e1, putative (Leishmania donovani (strain BPK282A1)) (UniProt E9BSI1)
# Sequence (E9BSI1 as listed by the source): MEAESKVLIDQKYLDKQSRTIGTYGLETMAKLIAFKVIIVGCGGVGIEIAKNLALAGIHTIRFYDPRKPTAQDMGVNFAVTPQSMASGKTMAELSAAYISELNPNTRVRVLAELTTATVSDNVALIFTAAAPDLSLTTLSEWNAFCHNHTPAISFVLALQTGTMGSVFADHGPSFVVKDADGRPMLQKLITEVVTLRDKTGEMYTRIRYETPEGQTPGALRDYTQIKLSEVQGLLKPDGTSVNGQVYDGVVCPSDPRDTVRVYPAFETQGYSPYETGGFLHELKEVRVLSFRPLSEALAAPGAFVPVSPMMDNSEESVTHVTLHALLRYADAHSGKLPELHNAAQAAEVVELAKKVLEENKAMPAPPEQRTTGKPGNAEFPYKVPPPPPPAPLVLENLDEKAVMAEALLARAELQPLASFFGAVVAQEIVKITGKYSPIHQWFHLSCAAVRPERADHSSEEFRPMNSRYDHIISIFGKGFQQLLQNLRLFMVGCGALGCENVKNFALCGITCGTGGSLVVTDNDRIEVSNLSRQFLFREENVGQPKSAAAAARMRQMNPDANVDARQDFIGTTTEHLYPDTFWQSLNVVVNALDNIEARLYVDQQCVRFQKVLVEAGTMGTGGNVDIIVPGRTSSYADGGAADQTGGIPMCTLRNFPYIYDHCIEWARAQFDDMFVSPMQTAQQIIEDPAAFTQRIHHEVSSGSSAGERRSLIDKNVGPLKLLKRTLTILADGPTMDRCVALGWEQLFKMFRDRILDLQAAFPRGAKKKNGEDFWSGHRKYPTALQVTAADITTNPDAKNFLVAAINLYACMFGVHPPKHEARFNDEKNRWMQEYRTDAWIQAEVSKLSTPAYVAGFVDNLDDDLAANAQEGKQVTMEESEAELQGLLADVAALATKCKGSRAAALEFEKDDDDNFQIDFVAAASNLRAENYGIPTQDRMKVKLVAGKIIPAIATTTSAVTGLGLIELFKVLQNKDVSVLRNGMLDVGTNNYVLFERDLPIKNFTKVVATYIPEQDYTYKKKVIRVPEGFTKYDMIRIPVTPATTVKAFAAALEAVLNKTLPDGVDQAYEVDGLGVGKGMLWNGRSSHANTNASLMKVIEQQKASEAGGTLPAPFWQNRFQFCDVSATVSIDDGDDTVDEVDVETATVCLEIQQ
# measurement.description: Leishmania donovani Ubiquitin Activating Enzyme (LdE1)
# Format: functional
# Design: scale not given: direction of the effect not stated beside the values
# experimental.parameters: 30 µM
Results with a measured potency or affinity are listed apart.
Form field: Percent Effect (one value per entry).
quantity: Percent Effect (%)

INSERT INTO assay_data (compound, measured_number) VALUES
  ('COc1ccc(CN2CCCC(Cn3nc(C)nc3C)C2)cc1F (centres undefined)', -3.8),
  ('Cc1nc(C)n(CC2CCCN2Cc2cc(C)on2)n1 (centres undefined)', 5.2),
  ('CC(O)CN(CC(=O)NC(=O)NCC(F)(F)F)c1ccccc1 (centres undefined)', 7.79),
  ('CCn1nc(C)c(CCn2ccnc2-c2cc3n(n2)CCCNC3)c1C', 2.67);
